Recorded EC50 by entry
molecular target: human mGluR4 (hmGluR4) (Homo sapiens); test: Calcium assay EC50 determination, positive allosteric modulator activity on hmGluR4 transiently over-expressed in HEK-293 cells; details: PAM mode with EC20 glutamate; hmGluR4 in HEK-293 cells; intracellular calcium (Fluo4AM); read-out: mGluR4 positive allosteric modulator activity, half maximal effective concentration (EC50)
Sequence (Q14833 33-912): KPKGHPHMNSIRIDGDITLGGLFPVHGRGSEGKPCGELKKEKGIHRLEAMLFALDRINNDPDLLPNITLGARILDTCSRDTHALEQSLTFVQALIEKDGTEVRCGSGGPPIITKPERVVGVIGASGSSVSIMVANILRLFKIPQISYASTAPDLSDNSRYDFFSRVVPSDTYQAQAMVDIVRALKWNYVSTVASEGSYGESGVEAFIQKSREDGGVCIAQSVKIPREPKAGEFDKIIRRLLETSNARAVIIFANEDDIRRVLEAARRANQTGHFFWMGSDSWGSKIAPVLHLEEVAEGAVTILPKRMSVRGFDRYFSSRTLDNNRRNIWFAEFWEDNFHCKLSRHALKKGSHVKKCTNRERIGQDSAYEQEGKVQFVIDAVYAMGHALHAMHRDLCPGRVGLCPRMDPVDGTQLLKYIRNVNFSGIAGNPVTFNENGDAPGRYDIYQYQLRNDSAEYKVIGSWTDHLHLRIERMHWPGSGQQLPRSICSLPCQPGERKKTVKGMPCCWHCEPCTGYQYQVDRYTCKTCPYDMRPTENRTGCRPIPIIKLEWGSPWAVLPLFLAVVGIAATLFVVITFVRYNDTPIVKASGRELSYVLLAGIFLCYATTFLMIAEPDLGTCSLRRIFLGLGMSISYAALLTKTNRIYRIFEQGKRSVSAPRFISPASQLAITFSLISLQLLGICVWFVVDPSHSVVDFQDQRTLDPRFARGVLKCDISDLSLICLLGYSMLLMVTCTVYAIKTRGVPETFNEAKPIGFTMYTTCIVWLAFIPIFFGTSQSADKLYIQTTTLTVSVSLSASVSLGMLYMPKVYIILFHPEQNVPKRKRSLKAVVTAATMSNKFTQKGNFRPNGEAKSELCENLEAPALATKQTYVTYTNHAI
Where a name gives a salt, the structure may show the parent alone.

>  <Molecule>
COc1cc(CCN2CCOCC2)cc2c(=O)[nH]c(-c3cc(C(F)(F)F)ccn3)nc12.Cl [Compound 158, hydrochloride]

>  <EC50>
1000 to 10000 nM

$$$$
>  <Molecule>
CCC(=O)N1CC(Oc2ccc3nc(-c4cc5ccsc5cn4)[nH]c(=O)c3c2)C1

>  <EC50>
100 to 1000 nM

$$$$
>  <Molecule>
Cl.O=c1[nH]c(-c2cc(C(F)(F)F)ccn2)nc2c(Br)cc(CCN3CCOCC3)cc12 [Compound 159, hydrochloride]

>  <EC50>
≤ 100 nM

$$$$
>  <Molecule>
Cc1cc(N2CCC3(CCOCC3)CC2)cc2c(=O)[nH]c(-c3cc4sccc4cn3)nc12

>  <EC50>
≤ 100 nM

$$$$
>  <Molecule>
CC(C)(C)OC(=O)N1CCC(Oc2ccc3nc(-c4ccccn4)[nH]c(=O)c3c2)CC1

>  <EC50>
1000 to 10000 nM

$$$$
>  <Molecule>
Cc1cc(CCN2CCS(=O)(=O)CC2)cc2c(=O)[nH]c(-c3cc4sccc4cn3)nc12

>  <EC50>
≤ 100 nM

$$$$
>  <Molecule>
CC(=O)N1CCC(Oc2ccc3nc(-c4cc5ccsc5cn4)[nH]c(=O)c3c2)C1 (stereo not shown)

>  <EC50>
100 to 1000 nM

$$$$
>  <Molecule>
CC(=O)N1CCC(COc2ccc3nc(-c4cc5ccsc5cn4)[nH]c(=O)c3c2)CC1

>  <EC50>
100 to 1000 nM

$$$$
>  <Molecule>
CC(=O)N1CCCC(CCOc2cc(C)c3nc(-c4cc5ccsc5cn4)[nH]c(=O)c3c2)C1 (stereo not shown)

>  <EC50>
≤ 100 nM

$$$$
>  <Molecule>
Cc1cc(CCN2CCOCC2)cc2c(=O)[nH]c(-c3cc4ccsc4cn3)nc12 [Compound 100, hydrochloride]

>  <EC50>
≤ 100 nM

$$$$
>  <Molecule>
Cc1cc(CN2CCCC2)cc2c(=O)[nH]c(-c3cc4ccsc4cn3)nc12.Cl [Compound 133, hydrochloride]

>  <EC50>
1000 to 10000 nM

$$$$
>  <Molecule>
Cl.O=c1[nH]c(-c2cc3ccccc3cn2)nc2ccc(OCCCc3ccncc3)cc12 [Compound 2, hydrochloride]

>  <EC50>
1000 to 10000 nM

$$$$
>  <Molecule>
O=c1[nH]c(-c2cc3sccc3cn2)nc2ccc(OCc3ccc(Br)cc3)cc12

>  <EC50>
> 10000 nM

$$$$
>  <Molecule>
Cc1cc(NCC(C)(C)O)cc2c(=O)[nH]c(-c3cc4ccsc4cn3)nc12

>  <EC50>
100 to 1000 nM

$$$$
>  <Molecule>
Cc1cc(OCC2CCN(C)C(=O)C2)cc2c(=O)[nH]c(-c3cc4ccsc4cn3)nc12 (stereo not shown)

>  <EC50>
≤ 100 nM

$$$$
>  <Molecule>
Cc1cc(O[C@H](C)C2CCOCC2)cc2c(=O)[nH]c(-c3cc4ccsc4cn3)nc12

>  <EC50>
≤ 100 nM

$$$$
